- tested_target: M1 muscarinic receptor (Homo sapiens, UniProt P11229)
- Construct: expressed in transfected cells; host or cells: CHO (M1-CHO)
- Sequence (P11229 1-460): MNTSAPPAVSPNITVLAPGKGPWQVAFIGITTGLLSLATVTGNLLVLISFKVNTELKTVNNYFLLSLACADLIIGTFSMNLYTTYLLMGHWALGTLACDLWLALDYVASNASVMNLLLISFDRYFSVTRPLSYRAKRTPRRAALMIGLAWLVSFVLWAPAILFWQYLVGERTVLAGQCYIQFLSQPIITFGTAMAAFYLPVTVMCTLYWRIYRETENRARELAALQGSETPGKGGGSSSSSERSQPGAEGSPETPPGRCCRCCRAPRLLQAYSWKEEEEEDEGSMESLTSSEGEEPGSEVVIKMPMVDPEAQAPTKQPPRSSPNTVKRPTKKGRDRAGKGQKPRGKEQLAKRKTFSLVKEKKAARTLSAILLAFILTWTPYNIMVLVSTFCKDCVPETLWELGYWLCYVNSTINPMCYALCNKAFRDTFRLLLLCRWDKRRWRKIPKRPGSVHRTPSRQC
- protocol_text: Functional mobilization of intracellular calcium (FLIPR) in M1-CHO cells
- Type: cell-based
- recorded_conditions: Table 4; 100% efficacy is the maximum response obtained with the Carbachol control
Consider the following molecules; for each one, report its Emax.

query: Using the record for O=C1CCCN1[C@H]1CCC2(CCN(CC3CCCCC3)CC2)c2ccccc21 [compound 647] , report its Emax.
result: 25 to 100%

query: Using the record for COCCN1CC2(CCN(C3CCCCC3)CC2)c2cc(F)ccc21 [compound 925] , report its Emax.
result: 25 to 100%

query: Using the record for CC(=O)N1CCC(N2CCC3(CC2)CN(C(=O)N(C)C)c2ccc(F)cc23)CC1 [compound 880] , report its Emax.
result: < 25%

query: Using the record for CCCOC(=O)N1CCC(N2CCC3(CC2)CN(C(C)=O)c2ccc(F)cc23)C1 (stereo not shown) [compound 632] , report its Emax.
result: < 25%
